The reported measurements were obtained from patent US20220073643A1.

Measured CDC EC50 by item
target: human Claudin18.2 (human); assay: cell-based or functional assay
Report only the number, with the unit µg/mL understood.

// known answers, use as guide
binder	CDC EC50 [µg/mL]
257F1E11 (antibody, V domains shown) VH: QAYLQQSGAELVRSGASVKMSCKASGYTFTSHNIHWVKQTPRQGLEWIGYIYPGNGGTNYNQKFKGKATLTADTSSSTAYMQISSLTSEDSAVYFCTRDYYGNSFAYWGQGTLVTVSA VL: DIVMTQSPSSLTEKAGERVSMSCKSSQSLFNSGNQKNYLTWYQQKPGQPPKLLIYWASTRESGVPDRFTGSGSGTDFTLTISSVQAEDLAIYYCQNDYWYPFTFGAGTKLELK	0.855
244A1B8 (antibody, V domains shown) VH: QAYLQQSGAELVRSGASVKMSCKASGYTFTSHNIHWVKQTPGQGLEWIGYIYPGNGAPNYNQKFRGKATLTADTSSSTAYMQISSLTSEDSAVYFCARDYYGNSFVYWGQGTLVTVSA VL: DIVMTQSPSSLTEKAGEKVSMSCKSSQSLLNSGNQKNYLTWYQQKPGQPPKLLIYWASTRESGVPDRFTGSGSGTDFTLTISSVQAEDLAVYYCQNDYRYPFTFGAGTKLELK	1.39

The binder 260G9E8 (antibody, V domains shown) VH: QADLQQSGAELVRSGASVKMSCKASGYTFASHNMHWVKQTPGQGLEWIGYIYPGNGGTKYNQKFTGKATLTADTSSSTAYMQITSLTSEDSAVYFCARDYYGNSFAYWGQGTLVTVSA VL: DIVMTQSPSSLTEKAGEKVSMRCKSSQSLLNSGNQKNYLTWYQQKPGQPPKLLIYWASTRESGVPDRFTGSGSGTDFTLTISSVQADDLAVYYCQNDYMFPFTFGAGTKLELK showed CDC EC50 equal to 1.05

The binder 406E1H7 (antibody, V domains shown) VH: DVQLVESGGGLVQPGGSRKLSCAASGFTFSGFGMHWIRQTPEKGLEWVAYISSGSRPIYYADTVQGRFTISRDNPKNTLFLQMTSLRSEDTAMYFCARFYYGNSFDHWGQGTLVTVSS VL: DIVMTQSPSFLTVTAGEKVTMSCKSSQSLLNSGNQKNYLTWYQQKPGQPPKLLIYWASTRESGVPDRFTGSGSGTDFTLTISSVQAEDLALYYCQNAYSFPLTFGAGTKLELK showed CDC EC50 equal to 2.07

The binder 426D9F6 (antibody, V domains shown) VH: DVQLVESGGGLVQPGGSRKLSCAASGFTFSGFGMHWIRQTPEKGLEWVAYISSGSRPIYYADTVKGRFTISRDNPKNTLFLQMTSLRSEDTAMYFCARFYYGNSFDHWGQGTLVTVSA VL: DIVMTQSPSFLTVTAGEKVTMSCKSSQSLLNSGNQRNYLTWYQQKPGQPPKLLIYWASTRESGVPDRFTGSGSGTDFTLTVSSVQAEDLALYYCQNAYSFPLTFGAGTKLELK showed CDC EC50 equal to 6.21

The binder 407H12E6 (antibody, V domains shown) VH: DVQLVESGGGLVQPGGSRKLSCAASGFTVSSFGMHWVRQAPEKGLEWVAYISSGSSPIYYADTVKGRFTISRDNPKNTLFLQMTSLRSEDTAIYFCARFYYGNSFDHWGQGTLVTVSA VL: DIVMTQSPSSLTVTTGEKVTMSCKSSQSLLNSGNQKNYLTWYQQKPGQSPKLLIYWASTRESGVPDRFTGSGSGTDFTLTISSVQTEDLAVYFCQNNYFFPLTFGAGTKLELK showed CDC EC50 equal to 1.83

The binder 207F8G5 (antibody, V domains shown) VH: QAYLQQSGAELVRSGASVKMSCKASGFTFTSYNIHWVKQTPGQGLEWIGYISPGNGGSNYNLKFKDKATLTSATSSSTAYMQISSLTSEDSAVYFCATGRGFAYWGQGTLVTVSA VL: DIVMTQSPSSLTVTPGEKVTMSCKSSQSLFNSGNQKNYLIWYQQKPGQPPKLLIYRASTRDSGVPDRFTGSGSGTDFTLTISNVQAEDLAIYYCQNDYSYPLTFGAGTKLELK showed CDC EC50 equal to 0.305

The binder 424G9G3 (antibody, V domains shown) VH: QVQLQQSGPEVVRPGASVKMSCKGSGYTLNNFWMHWVKQRPGQGLEWIGMIDTSNGETRLNQIFKDKATLTVDKSSKTAYMQLSSLTSEDSAVYYCAPYGNFADWGQGTTLTVSS VL: DVLLTQTPLSLPVSLGDQASISCRSSQSIVYGNGNTYLEWYLQKPGQSPKLLIYKVSSRFSGVPDRFSGSGSGTDFTLKITKVEAEDLGVYYCFQGSHVPFTFGSGTKLEIK showed CDC EC50 equal to 20.3

The binder 257G7F7 (antibody, V domains shown) VH: QAYLQQSGAELVRSGASVKMSCKASGYTFTSHNLHWVKQTPGQGLEWIGYIYPGNGNTNYNQKFKGKATLTADTSSSTAYMQISSLTSEDSAVYFCTRDYYGNSFAYWGQGTLVTVSA VL: DIVMTQSPSSLTEKAGERVSMSCKSSQSLFNSGNQKNYLTWYQQKPGQPPKLLIYWASTRESGVPDRFTGSGSGTDFTLTISSVQAEDLAVYYCQNNYWFPFTFGAGTKLELK showed CDC EC50 equal to 1.06

The binder 392A11C8 (antibody, V domains shown) VH: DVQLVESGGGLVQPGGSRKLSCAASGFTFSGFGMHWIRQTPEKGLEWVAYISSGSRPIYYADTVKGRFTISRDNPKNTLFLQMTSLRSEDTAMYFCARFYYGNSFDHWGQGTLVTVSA VL: DIVMTQSPSFLTVTAGEKVTMSCRSSQSLLNSGNQKNYLTWYQQKPGQPPKLLIYWASTRESGVPDRFTGSGSGTDFTLTISSVQAEDLALYYCQNAYSFPLTFGAGTKLELK showed CDC EC50 equal to 1.95
